testName: Cytotoxicity against human L02 cells assessed as reduction in cell viability incubated for 72 hrs by CCK-8 assay
Format: toxicity, cell-based
reportedMetric: IC50 at 72 h (µg/mL)
The reply should be a number in µg/mL, with the unit left off.

                                     smiles  unitinfo  experimentalvalue
0  COc1c(OC(C)=O)cc2oc3cc(O)c(CC=C(C)C)c(O)c3c(=O)c2c1CC=C(C)C     µg/mL               13.2

Here is the next item to consider.
input: What value of measured IC50 at 72 h is listed for COc1c(O)cc2oc3cc(O)c(CC=C(C)C)c(OC(C)=O)c3c(=O)c2c1CC=C(C)C ?
output: 22.1
